Test system: LTB4 production from human peripheral monocytes
Protocol Text: Inhibitory effect on LTB4 production from human peripheral monocytes
Assay type: cell-based
Experimental Conditions: Monocyte, LTB4 in culture supernatant, ELISA
Endpoint: pIC50
One number for each entry, as −log10 of the molar value.

Which measured pIC50 value corresponds to Cc1cc(-c2ccc(C)c(C)c2)n(-c2ccc(S(N)(=O)=O)cc2)c1 ?
6.51

---

Hi there, I'd appreciate the recorded inhibition at 10 µM for every entry that follows.
System: IL-1β production in human peripheral monocytes
Protocol Text: Inhibitory effect on IL-1β production in LPS-stimulated human peripheral monocytes
Format: cell-based
Experimental Conditions: Monocyte, LPS 10 μg/ml, 20 hours
Answers are plain numbers, in %.

Study these solved cases before continuing.
molecule="CS(=O)(=O)c1ccc(-c2cccn2-c2ccc(F)cc2F)cc1 [Example 7]" endpoint="inhibition at 10 µM" measured_value=42.6
molecule="Cc1ccc(-c2ccccc2)n1-c1ccc(S(N)(=O)=O)cc1 [Compound A, reference compound]" endpoint="inhibition at 10 µM" measured_value=24.2

For each of the molecules below, state inhibition at 10 µM.
1. CSc1ccc(-n2c(C)ccc2-c2ccc(S(N)(=O)=O)cc2)cc1 [Example 90]
2. CS(=O)(=O)c1ccc(-c2ccc(F)n2-c2ccc(F)cc2)cc1 [Example 41]

1: 62.2; 2: 51.2

Hey, just so you know, these numbers are from patent USRE39420E1.
